Hey, just so you know, these numbers are from paper PMC12126525.

# tested target: BiP NBD (Homo sapiens, UniProt P11021)
# Sequence (P11021 19-406): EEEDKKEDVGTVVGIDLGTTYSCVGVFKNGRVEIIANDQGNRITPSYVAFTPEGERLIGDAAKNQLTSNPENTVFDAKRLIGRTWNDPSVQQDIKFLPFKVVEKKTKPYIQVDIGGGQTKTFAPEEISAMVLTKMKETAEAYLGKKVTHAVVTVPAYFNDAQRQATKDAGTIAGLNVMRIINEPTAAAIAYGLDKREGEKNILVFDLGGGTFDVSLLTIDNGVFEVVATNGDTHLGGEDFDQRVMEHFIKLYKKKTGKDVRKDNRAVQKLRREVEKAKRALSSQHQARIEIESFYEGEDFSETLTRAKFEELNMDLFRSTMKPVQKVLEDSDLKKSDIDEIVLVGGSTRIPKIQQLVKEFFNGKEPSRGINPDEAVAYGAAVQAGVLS
# experimental details: NMR titration (equilibrium methyl-TROSY) with phosphate
# Assay type: binding
# Design: His6 (N, cleaved yes); made in house; host or cells: E. coli BL21-(DE3)-Lemo, pET28a vector
# assay setup: KD3: Pi binding to apo NBD, 100 μM BiP NBD, 25 °C
endpoint: pKd
Give bare numbers, as −log10 of the molar value.

Req: Value lookup for pKd; key = O=P(O)(O)O
Resp: 3.51

###

Kindly supply the reported species values for the records listed here.
# tested target: BiP NBD (Homo sapiens)
# experimental details: Global kinetic fit (MCMC) of four NMR data sets (E1+E2, E1 only, E2 only, no recycling): functional cycle kinetic parameters
# Assay type: biochemical
# Set-up: His6 (N, cleaved yes); made in house; host or cells: E. coli BL21-(DE3)-Lemo, pET28a vector
# assay setup: Supplementary Fig 10b, time 10 min
Numbers only, in µM.

CC(=O)C(=O)O [Pyruvate] ... 1011

List species for every entry below, keeping the order given.
1. C=C(OP(=O)(O)O)C(=O)O
2. O=P(O)(O)O

Resp:
[9179, 1011]

Req: Quick check: species of Nc1ncnc2c1ncn2[C@@H]1O[C@H](COP(=O)(O)OP(=O)(O)OP(=O)(O)O)[C@@H](O)[C@H]1O ?
Resp: 5016

###

# tested target: BiP NBD (Homo sapiens)
# experimental details: Global kinetic fit (MCMC) of four NMR data sets (E1+E2, E1 only, E2 only, no recycling): functional cycle kinetic parameters
# Assay type: biochemical
# Design: His6 (N, cleaved yes); made in house; host or cells: E. coli BL21-(DE3)-Lemo, pET28a vector
# assay setup: Supplementary Fig 10a, time 47 min
# cutoff 7000 µM applies to species; >= gives label 1, < gives label 0

Req: Assess whether reported species for O=P(O)(O)O sits at 7000 µM or higher.
Resp: label 0

Req: Entry Nc1ncnc2c1ncn2[C@@H]1O[C@H](COP(=O)(O)OP(=O)(O)OP(=O)(O)O)[C@@H](O)[C@H]1O : is its species no less than 7000 µM?
Resp: label 0

###

# tested target: UniProt P11021
# experimental details: Global kinetic fit (MCMC) of four NMR data sets (E1+E2, E1 only, E2 only, no recycling): functional cycle kinetic parameters
# Assay type: biochemical
# Design: His6 (N, cleaved yes); made in house; host or cells: E. coli BL21-(DE3)-Lemo, pET28a vector
# assay setup: Supplementary Fig 10a, time 71 min
The threshold is inclusive: species of exactly 10000 µM counts as Satisfied; values below receive Not satisfied.

See these solved cases before continuing.
CC(=O)C(=O)O [Pyruvate] ... Satisfied
C=C(OP(=O)(O)O)C(=O)O [PEP] ... Satisfied

Req: I'd appreciate it if you could say whether Nc1ncnc2c1ncn2[C@@H]1O[C@H](COP(=O)(O)OP(=O)(O)OP(=O)(O)O)[C@@H](O)[C@H]1O [ATP] has species at least equal to 10000 µM.
Resp: Not satisfied

Req: Is species for O=P(O)(O)O [Pi] at or above 10000 µM?
Resp: Not satisfied

Req: Hi team, for O=P(O)(O)O[C@H]1O[C@H](CO)[C@@H](O)[C@H](O)[C@H]1O [glucose-1-p] , is the recorded species at or above 10000 µM?
Resp: Satisfied

###

Can you tell me log10 of species for the items I'm about to list?
# tested target: BiP NBD (Homo sapiens)
# experimental details: Global kinetic fit (MCMC) of four NMR data sets (E1+E2, E1 only, E2 only, no recycling): functional cycle kinetic parameters
# Assay type: biochemical
# Parameters: His6 (N, cleaved yes); made in house; host or cells: E. coli BL21-(DE3)-Lemo, pET28a vector
# assay setup: Supplementary Fig 10a, time 17 min
Record value = log10 of species given in µM.

Recorded results for 3 compounds are shown here.
Nc1ncnc2c1ncn2[C@@H]1O[C@H](COP(=O)(O)OP(=O)(O)OP(=O)(O)O)[C@@H](O)[C@H]1O [ATP] ... 3.69
CC(=O)C(=O)O [Pyruvate] ... 3.48
O=P(O)(O)O[C@H]1O[C@H](CO)[C@@H](O)[C@H](O)[C@H]1O [glucose-1-p] ... 3.47

// input: 2 compounds below; output: log10 of species for each
1. C=C(OP(=O)(O)O)C(=O)O [PEP]
2. O=P(O)(O)O [Pi]

Resp:
4.34
1.40

###

# tested target: BiP NBD (Homo sapiens)
# experimental details: Global kinetic fit (MCMC) of four NMR data sets (E1+E2, E1 only, E2 only, no recycling): functional cycle kinetic parameters
# Format: biochemical
# Parameters: His6 (N, cleaved yes); made in house; host or cells: E. coli BL21-(DE3)-Lemo, pET28a vector
# assay setup: Supplementary Fig 10b, time 40 min
endpoint: species (µM)
Answers are plain numbers, in µM.

O=P(O)(O)O ... 3735

Answer for every listed entry: what is its species? The entries follow.
1. Nc1ncnc2c1ncn2[C@@H]1O[C@H](COP(=O)(O)OP(=O)(O)OP(=O)(O)O)[C@@H](O)[C@H]1O
2. CC(=O)C(=O)O [Pyruvate]
3. C=C(OP(=O)(O)O)C(=O)O

Resp:
1. 4923
2. 3735
3. 6265

###

# tested target: BiP NBD (Homo sapiens, UniProt P11021)
# experimental details: Global kinetic fit (MCMC) of four NMR data sets (E1+E2, E1 only, E2 only, no recycling): functional cycle kinetic parameters
# Format: biochemical
# Design: His6 (N, cleaved yes); made in house; host or cells: E. coli BL21-(DE3)-Lemo, pET28a vector
# assay setup: Supplementary Fig 10a, time 5 min
endpoint: species (µM)
One number for each entry, in µM.

// solved cases for species follow
Nc1ncnc2c1ncn2[C@@H]1O[C@H](COP(=O)(O)OP(=O)(O)OP(=O)(O)O)[C@@H](O)[C@H]1O [ATP] ... 4931
O=P(O)(O)O[C@H]1O[C@H](CO)[C@@H](O)[C@H](O)[C@H]1O [glucose-1-p] ... 1073
CC(=O)C(=O)O [Pyruvate] ... 841
O=P(O)(O)O [Pi] ... 25

Attention now turns to another entry.
Req: # lookup: species of C=C(OP(=O)(O)O)C(=O)O [PEP]
Resp: 23927

###

# tested target: BiP NBD (Homo sapiens, UniProt P11021)
# experimental details: Global kinetic fit (MCMC) of four NMR data sets (E1+E2, E1 only, E2 only, no recycling): functional cycle kinetic parameters
# Format: biochemical
# Set-up: His6 (N, cleaved yes); made in house; host or cells: E. coli BL21-(DE3)-Lemo, pET28a vector
# assay setup: Supplementary Fig 10a, time 35 min
endpoint: species

Worked set:
CC(=O)C(=O)O [Pyruvate] ... 5935 µM
O=P(O)(O)O ... 25 µM
Nc1ncnc2c1ncn2[C@@H]1O[C@H](COP(=O)(O)OP(=O)(O)OP(=O)(O)O)[C@@H](O)[C@H]1O ... 4943 µM
C=C(OP(=O)(O)O)C(=O)O ... 19469 µM

Req: Endpoint output: species of O=P(O)(O)O[C@H]1O[C@H](CO)[C@@H](O)[C@H](O)[C@H]1O . Value?
Resp: 5531 µM

###

# tested target: BiP NBD (Homo sapiens, UniProt P11021)
# experimental details: Global kinetic fit (MCMC) of four NMR data sets (E1+E2, E1 only, E2 only, no recycling): functional cycle kinetic parameters
# Assay type: biochemical
# Design: His6 (N, cleaved yes); made in house; host or cells: E. coli BL21-(DE3)-Lemo, pET28a vector
# assay setup: Supplementary Fig 10b, time 70 min
Hi there, I'd appreciate the recorded species for every entry that follows.
Answers are plain numbers, in µM.

O=P(O)(O)O ... 5727
CC(=O)C(=O)O [Pyruvate] ... 5727
C=C(OP(=O)(O)O)C(=O)O ... 3973

Could you now look at the following compound, please?
Req: Recorded species of Nc1ncnc2c1ncn2[C@@H]1O[C@H](COP(=O)(O)OP(=O)(O)OP(=O)(O)O)[C@@H](O)[C@H]1O , please.
Resp: 4937

###

Exercise: state measured species for each of the compounds provided.
# tested target: UniProtKB P11021
# experimental details: Global kinetic fit (MCMC) of four NMR data sets (E1+E2, E1 only, E2 only, no recycling): functional cycle kinetic parameters
# Type: biochemical
# Design: His6 (N, cleaved yes); made in house; host or cells: E. coli BL21-(DE3)-Lemo, pET28a vector
# assay setup: Supplementary Fig 10b, time 34 min
Answers are plain numbers, in µM.

O=P(O)(O)O [Pi] ... 3384

For every listed record, write down its species.
1. CC(=O)C(=O)O [Pyruvate]
2. C=C(OP(=O)(O)O)C(=O)O [PEP]
3. Nc1ncnc2c1ncn2[C@@H]1O[C@H](COP(=O)(O)OP(=O)(O)OP(=O)(O)O)[C@@H](O)[C@H]1O [ATP]

Resp:
1: 3384; 2: 6616; 3: 5005
